Test system: TNFα
protocolDetails: In vitro assay: TNFα ELISA of supernatants of LPS-stimulated human PBMC
Assay type: cell-based
testConditions: human PBMC pretreated with drug 60 min, stimulated with LPS (E. coli O55:B5) 100 ng/mL, overnight culture, TNFα in supernatant by ELISA; listed as 14-25; read-out: 50% Inhibition of TNFα level (IC50)

{"columns": ["smilesNotation", "endpointUnit", "IC50"],
 "data": [
  ["CC(=O)Nc1cccc(Cc2c(C)c3cc(Cl)c(OC(=O)N(C)C)cc3oc2=O)c1", "nM", 310]
]}

Where do the numbers come from? From patent US7994318B2.
